value-type: melting point

The cases that follow already have their melting point on record.
Prompt line: What does the data say about its melting point? Entry: "O=C(Nc1cnc2c(c1)nc1n2CCC1)c1cc2cccc(F)c2n1Cc1cccc(F)c1"
Response line: 237 to 239 °C

Prompt line: Quick check: melting point of "O=C(Nc1cnc2c(c1)nc1n2CCC1)c1cc2c(Cl)cccc2n1Cc1cccc(F)c1" ?
Response line: 302 to 303 °C

Prompt line: May I ask what melting point has been recorded for "O=C(Nc1cnc2c(c1)nc1n2CCC1)c1cc2ccc(F)cc2n1Cc1cccc(F)c1" ?
Response line: 235 to 236 °C

Prompt line: State the recorded melting point for this entry: "CC(C)(C)c1ccc2c(c1)cc(C(=O)Nc1cnc3c(c1)nc1n3CCC1)n2Cc1cccc(F)c1"
Response line: 234 to 236 °C

Prompt line: Can you look up the measured melting point of "O=C(Nc1cnc2c(c1)nc1n2CCC1)c1cc2cc(C(F)(F)F)ccc2n1Cc1cccc(F)c1" for me?
Response line: 223 to 225 °C

Prompt line: Look up melting point: "Cc1ccc2c(c1)cc(C(=O)Nc1cnc3c(c1)nc1n3CCC1)n2Cc1cccc(F)c1"
Response line: 237 to 238 °C

Continuing:
Prompt line: Suppose we examine the compound "O=C(Nc1cnc2c(c1)nc1n2CCC1)c1cc2cc(Cl)ccc2n1Cc1cccc(F)c1" ; what melting point value has been reported?
Response line: 263 to 264 °C

Prompt line: Dear colleague, I am looking for the recorded melting point of the following compound: "O=C(Nc1cnc2c(c1)nc1n2CCC1)c1cc2ccc(Cl)cc2n1Cc1cccc(F)c1"
Response line: 252 to 253 °C

Prompt line: Please report the recorded melting point for "O=C(Nc1cnc2c(c1)nc1n2CCC1)c1cc2ccc(C(F)(F)F)cc2n1Cc1cccc(F)c1" .
Response line: 261 to 262 °C

Prompt line: Given the compound "CC(C)c1ccc2cc(C(=O)Nc3cnc4c(c3)nc3n4CCC3)n(Cc3cccc(F)c3)c2c1" , what is its reported melting point?
Response line: 275 to 278 °C

====

value-type: melting point

Here's what some known entries look like.
Prompt line: // returns reported melting point for input "CSc1ccc2cc(C(=O)Nc3cnc4c(c3)nc3n4CCC3)n(Cc3cccc(F)c3)c2c1"
Response line: 222 to 223 °C

Prompt line: State the recorded melting point for this entry: CN(C)C1CCn2c1nc1cc(NC(=O)c3cc4cc(C(F)(F)F)ccc4n3Cc3cccc(F)c3)cnc12 (single isomer, unassigned; (-))
Response line: 203 to 205 °C

More entries:
Prompt line: Can you look up the measured melting point of "Cc1cccc2c1cc(C(=O)Nc1cnc3c(c1)nc1n3CCC1)n2Cc1cccc(F)c1" for me?
Response line: 303 to 304 °C

====

# maps each entry to its melting point

Prompt line: Can you share its melting point? I mean this compound: CC(=O)NC1CCn2c1nc1cc(NC(=O)c3cc4cc(F)ccc4n3Cc3cccc(F)c3)cnc12 (racemic) [Compound 35]
Response line: 282 to 283 °C

Prompt line: Can you share its melting point? I mean this compound: CC(=O)OC1CCn2c1nc1cc(NC(=O)c3cc4cc(F)ccc4n3Cc3cccc(F)c3)cnc12 (racemic) [Compound 2]
Response line: 139 to 141 °C

Prompt line: I would be grateful if you could share the reported melting point for "Cc1ccc(C)c2c1cc(C(=O)Nc1cnc3c(c1)nc1n3CCC1)n2Cc1cccc(F)c1" .
Response line: 286 to 288 °C

Prompt line: Which value of melting point has been reported for O=C(Nc1cnc2c(c1)nc1n2CCC1O)c1cc2cc(C(F)(F)F)ccc2n1Cc1cccc(F)c1 (stereo not shown) [Compound 26] in the records?
Response line: 267 to 268 °C

New cases:
Prompt line: Item O=C(Nc1cnc2c(c1)nc1n2CCC1c1ccccc1)c1cc2cc(C(F)(F)F)ccc2n1Cc1cccc(F)c1 (racemic) [Compound 30] has what recorded melting point?
Response line: 129 to 130 °C

Prompt line: Requested read-out: melting point. Entry: NC1CCn2c1nc1cc(NC(=O)c3cc4cc(F)ccc4n3Cc3cccc(F)c3)cnc12 (racemic) [Compound 34]
Response line: 218 to 220 °C

Prompt line: Entry under review: CS(=O)(=O)c1ccc2c(c1)cc(C(=O)Nc1cnc3c(c1)nc1n3CCC1)n2Cc1cccc(F)c1 [Compound 21] . Reported melting point?
Response line: 275 to 277 °C

Prompt line: Quick one: melting point for CC(C)(C)c1ccc2cc(C(=O)Nc3cnc4c(c3)nc3n4CCC3)n(Cc3cccc(F)c3)c2c1 [Compound 19] ?
Response line: 244 to 245 °C

Prompt line: Given O=C(Nc1cnc2c(c1)nc1n2CCCC1)c1cc2cc(C(F)(F)F)ccc2n1Cc1cccc(F)c1 [Compound 27] , state its recorded melting point.
Response line: 262 to 263 °C

Prompt line: Given O=C(Nc1cnc2c(c1)nc1n2CCC1O)c1cc2cc(C(F)(F)F)ccc2n1Cc1cccc(F)c1 (racemic) [Compound 29] , state its recorded melting point.
Response line: 254 to 255 °C

Prompt line: Please look up its melting point: "O=C(Nc1cnc2c(c1)nc1n2CCC1)c1cc2c(F)cccc2n1Cc1cccc(F)c1"
Response line: 265 to 266 °C

Prompt line: Sample O=C(Nc1cnc2c(c1)nc1n2CCC1)c1cc2cc(C(F)(F)F)cnc2n1Cc1cccc(F)c1 [Compound 24] — what was its melting point?
Response line: 247 to 249 °C

Prompt line: Data request, read-out melting point, for "O=C(Nc1cnc2c(c1)nc1n2CCC1)c1cc2ccccc2n1Cc1cccc(F)c1"
Response line: 243 to 244 °C

Prompt line: Item under review: "O=C(Nc1cnc2c(c1)nc1n2CCC1)c1cc2cc(F)cnc2n1Cc1cccc(F)c1" . Reported melting point?
Response line: 242 to 243 °C

Prompt line: GET /values?readout=melting point&item= O=C(Nc1cnc2c(c1)nc1n2CCC1O)c1cc2ccc(C(F)(F)F)cc2n1Cc1cccc(F)c1 (single isomer, unassigned; (-)) [Compound 28]
Response line: 269 to 271 °C

Prompt line: For O=C(Nc1cnc2c(c1)nc1n2CCC1O)c1cc2cc(F)ccc2n1Cc1cccc(F)c1 (racemic) , what is its reported melting point?
Response line: 288 to 290 °C

Prompt line: What value of melting point has been reported for the following compound? O=C(Nc1cnc2c(c1)nc1n2CCC1)c1cc2cc(F)ccc2n1Cc1cccc(F)c1 [Compound 1]
Response line: 227 to 229 °C

Prompt line: Could you tell me which melting point is on file for O=C(Nc1cnc2c(c1)nc1n2CCC1)c1cc2ccc(C(F)(F)F)nc2n1Cc1cccc(F)c1 [Compound 23] ?
Response line: 272 to 273 °C

Prompt line: Would you mind telling me what melting point value was observed for "Cc1ccc2cc(C(=O)Nc3cnc4c(c3)nc3n4CCC3)n(Cc3cccc(F)c3)c2c1" ?
Response line: 182 to 183 °C

Prompt line: Look at this compound and give its reported melting point. O=C(Nc1cnc2c(c1)nc1n2CCC1O)c1cc2cc(C(F)(F)F)cnc2n1Cc1cccc(F)c1 (single isomer, unassigned; (-)) [Compound 36]
Response line: 279 to 280 °C

Prompt line: Value lookup for melting point; key = "CCc1ccc2cc(C(=O)Nc3cnc4c(c3)nc3n4CCC3)n(Cc3cccc(F)c3)c2c1"
Response line: 224 to 226 °C

Prompt line: So what's the measured melting point for this one? CC1(C)CCn2c1nc1cc(NC(=O)c3cc4cc(C(F)(F)F)ccc4n3Cc3cccc(F)c3)cnc12 [Compound 31]
Response line: 212 to 213 °C
